# SYSTEM TESTED: Potassium voltage-gated channel subfamily KQT member 1 (Homo sapiens) (UniProt P51787)
# Sequence (P51787 whole entry, looked up): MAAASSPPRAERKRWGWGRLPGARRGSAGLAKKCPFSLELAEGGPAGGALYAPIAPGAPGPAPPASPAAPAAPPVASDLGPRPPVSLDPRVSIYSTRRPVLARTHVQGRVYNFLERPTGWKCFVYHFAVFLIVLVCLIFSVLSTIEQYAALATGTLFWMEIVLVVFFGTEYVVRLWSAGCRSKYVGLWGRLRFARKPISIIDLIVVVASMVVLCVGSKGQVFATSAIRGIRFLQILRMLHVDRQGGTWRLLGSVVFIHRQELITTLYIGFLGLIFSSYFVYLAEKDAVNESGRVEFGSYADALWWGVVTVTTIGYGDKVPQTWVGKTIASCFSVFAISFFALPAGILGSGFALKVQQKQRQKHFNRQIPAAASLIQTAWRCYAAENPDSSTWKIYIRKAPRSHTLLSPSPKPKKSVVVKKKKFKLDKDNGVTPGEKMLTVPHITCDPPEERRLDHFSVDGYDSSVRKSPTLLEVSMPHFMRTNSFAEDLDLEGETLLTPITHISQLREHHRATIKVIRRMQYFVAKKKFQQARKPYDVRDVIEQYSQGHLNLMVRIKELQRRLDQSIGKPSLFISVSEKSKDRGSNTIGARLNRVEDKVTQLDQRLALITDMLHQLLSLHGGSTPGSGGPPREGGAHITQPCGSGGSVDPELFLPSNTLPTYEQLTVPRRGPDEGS
# ASSAY COMMENT: KCNQ1 channel current potentiators, confirmation, orthogonal assay for KCNQ1 potentiator project, IonWorks patch clamp, KCNQ1-CHO cells (AID 493184)
# REPORTED CONDITIONS: automated patch clamp current, at 10 µM
Activity calls are given as the source filed them.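 Rule for the calls: active = current rise at least 3 SD above the untreated control mean in each of two repeat wells; inactive = the rest.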
Can you answer with just one of these options? active, inactive

>>> classification("OCCN1CCN(c2ncnc3c2sc2nc(N4CCOCC4)c4c(c23)CCC4)CC1")
"inactive"
>>> classification("CN1c2ccccc2C(O)=C(C(=S)Nc2ccc(Cl)cc2)S1(=O)=O")
"inactive"
>>> classification("C/C(=N\\Nc1nc2ccccc2s1)c1ccc(Br)s1")
"inactive"

# evaluate next
Problem: Fill in: this test's call for `Cc1ccc(/C=C2\SC(=S)N(NS(=O)(=O)c3ccc(C)cc3)C2=O)cc1` is ___
Solution: active

====

What inhibition was measured for each of the following?
# SYSTEM TESTED: Potassium voltage-gated channel subfamily KQT member 1 (Homo sapiens) (UniProt P51787)
# ASSAY COMMENT: KCNQ1 potassium channel inhibitors, confirmation, cell-based, Tl flux, duplicate (AID 588353);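 note: 0% = buffer control ratio and 100% = XE991 inhibitor control ratio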
# REPORTED CONDITIONS: KCNQ1 cell line, FluxOR thallium flux fluorescence, at 10 µM, active compounds read high
The list shows a part of the results.
Give bare numbers, in %.

The examples below pair each entry with its known result.
>>> observed_measurement("Cc1cccc(-n2cc(CN3CCN(C(=O)c4ncn[nH]4)CC3)c(-c3cccc(F)c3)n2)c1")
45.5
>>> observed_measurement("CC1CCC2(CC1)NC(=O)N(CC(=O)c1cccn1C)C2=O (stereo unspecified)")
31
>>> observed_measurement("CN(c1cccc(NC(=O)Nc2ccc(Cl)cc2)c1)S(C)(=O)=O")
59.5

// for each compound in input: emit inhibition
1. Cn1nccc1C(=O)NC1CCCc2c1cnn2-c1ccc(F)cc1F (stereo unspecified)
2. C=CCOC(=O)C1=C(C)NC(SCC(=O)OCC)=C(C#N)C1c1ccc(C)cc1 (stereo unspecified)
3. CCCN1Cc2cccc(C(=O)NCc3ccccc3)c2C1=O
4. Clc1cccc(-c2nc(NCC3CCCO3)c3ccccc3n2)c1 (stereo unspecified)
5. Fc1ccc2[nH]c3c(N4CCSCC4)ncnc3c2c1

Solution:
[90, 124, 83, 116, 162]

Dear colleague, could you send me inhibition for each of the items below? Thanks.
1. COC(=O)c1cc(NC(=O)c2cc(C(C)(C)C)nn2Cc2cccc(C)c2)ccc1N1CCOCC1
2. N#Cc1c(/N=C/N2CCCC2)oc(-c2ccccc2)c1-c1ccccc1
3. COc1ccc(Cl)cc1NC(=O)C(C)N1CCc2ccccc21 (stereo unspecified)

Solution:
77
70
114

====

# SYSTEM TESTED: Potassium voltage-gated channel subfamily KQT member 2 (Rattus norvegicus)
# ASSAY COMMENT: rat KCNQ2 channel potentiation, selectivity assay for KCNQ1 potentiator project, KCNQ2-CHO-K1 cells (AID 493009);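 note: assay conditions were tuned for KCNQ1 rather than KCNQ2 modulators; signal is max minus min fluorescence divided by baseline after thallium stimulus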
# REPORTED CONDITIONS: FluxOR thallium flux fluorescence, at 10 µM; active compounds read high, scaled: buffer 0, activator control 100
The source made the active and inactive calls.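 Rule for the calls: active = mean duplicate potentiation above the buffer control mean plus 5 SD of buffer wells; inactive = the rest.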
ENDPOINT: potentiation

// solved cases for potentiation follow
>>> observed_measurement("C=CCNC(=S)Nc1nc2c(cc1C(=O)OCC)CCCC2")
"inactive"
>>> observed_measurement("Cc1ccc(C)c(N2CCN(C(=O)CCS(=O)(=O)c3ccc4c(c3)NC(=O)CO4)CC2)c1")
"inactive"
>>> observed_measurement("CC(C)(C)C1CCc2c(sc(NC(=O)C3CC=CCC3C(=O)O)c2C#N)C1 (centres undefined)")
"184% (active)"
>>> observed_measurement("Cc1[nH]c(=S)c(C#N)c(C)c1Cc1ccc(Cl)cc1Cl")
"inactive"
>>> observed_measurement("Oc1c(Br)cc(Br)cc1/C=N/c1nc2c(s1)CCCC2")
"inactive"
>>> observed_measurement("COc1ccc(C(=O)/C=C/C(=O)N(CC(=O)NC2CCCCC2)Cc2cccs2)c(O)c1")
"inactive"
>>> observed_measurement("O=C(CCc1ccccc1)Nc1nccs1")
"inactive"
>>> observed_measurement("Cc1ccc(C(=O)Sc2cccccc2=O)cc1")
"228% (active)"

Report potentiation for each item below.
1. NNC(=O)c1sccc1OCc1ccc(Cl)cc1Cl
2. CN1CCN(C(=O)/C(=C/c2ccccc2)c2ccccc2)CC1
3. CCCn1c(NC(=O)CN2C(=O)NC3(CCCC3)C2=O)nc2ccccc21
4. COC(=O)c1ccc(COC(=O)c2ccccc2OC)cc1
5. Cc1ccc(C(C)C)c(OCc2n[nH]c(=S)o2)c1

Solution:
1. inactive
2. inactive
3. inactive
4. inactive
5. 160% (active)

Batch request: potentiation for each of the following compounds.
1. CCOC(=O)SC1=N/C(=C\c2ccc(N(C)C)cc2)C(=O)S1
2. NC(=O)c1cccc(N=Cc2cc(Cl)cc(Cl)c2O)c1
3. O=C(CNC(=O)c1ccccc1)NCc1ccc(Cl)cc1
4. CC(=O)/C=C1/C(=O)Nc2ccccc21
5. CCOc1ccc(C(=O)C(CCC(CN(C)C)C(=O)c2ccc(OCC)cc2)CN(C)C)cc1 (centres undefined)

Solution:
["inactive", "154% (active)", "inactive", "188% (active)", "152% (active)"]

Hi team, please reply with potentiation for each item in this list.
1. CC(NC(=O)c1ccco1)C(=O)N(C)Cc1ccc(C(F)(F)F)cc1 (centres undefined)
2. Cc1cccc(C(=O)NNC(=S)NC(=O)c2ccccc2)c1
3. CCC1(CC)Cc2ccccc2-c2[nH]c(=S)[nH]c(=O)c21
4. Cc1sc2ncnc(SCC(=O)NC(=O)c3cccn3C)c2c1C
5. O=C(/C=C/c1ccccc1)C1C(=O)c2ccccc2C1=O
6. S=c1nc(Cc2ccc(Cl)cc2)[nH]c2ccccc12

Solution:
1: inactive; 2: 192% (active); 3: inactive; 4: 201% (active); 5: 146% (active); 6: 350% (active)

Origin of values: PubChem BioAssay
